Please respond with reported AUC for every item in the list.
# PROTOCOL NOTES: PK protocol, intravenous administration
# Type: in vivo, male Sprague Dawley rats
# CONDITION: male, Sprague Dawley, plasma, dose 1 mg/kg, rat
Structures can show the parent of a compound that is named as a salt.
Answers are plain numbers, in ng·h/mL.

Recorded AUC, per entry:
- MOLECULE: "COc1cc(-c2ccc3c(c2NC(=O)NS(=O)(=O)N(C)C2CCN(C)C2)CCC3)ccn1 (stereo not shown)"
  QUANTITATIVE RESULT: 1320
- MOLECULE: "CC(C)c1cc(F)cc(-c2ccnc(C#N)c2)c1NC(=O)NS(=O)(=O)c1ccn(C(C)C)n1"
  QUANTITATIVE RESULT: 386
- MOLECULE: "CC(C)c1cc(F)cc(-c2cccc(C#N)c2)c1NC(=O)NS(=O)(=O)c1cc(CN(C)C)n(C)n1"
  QUANTITATIVE RESULT: 375

Hey, can you go through the list below and give me AUC for every item?
1. CC(C)c1cc(F)cc(-c2cnn(C)c2)c1NC(=O)NS(=O)(=O)c1cc(C(=O)N(C)C)n(C)n1 [Example 34, sodium salt]
2. Cc1cc(-c2cc(F)cc(C(C)C)c2NC(=O)NS(=O)(=O)c2cc(CN(C)C)n(C)n2)n(C)n1

[661, 259]

For each entry beneath this line, provide reported AUC.
1. COc1cc(-c2ccc3c(c2NC(=O)NS(=O)(=O)c2cncc(N(C)C)n2)CCC3)ccn1
2. COc1cc(-c2cc(F)cc(C(C)C)c2NC(=O)NS(=O)(=O)c2cc(CN(C)C)n(C(C)C)n2)ccn1

1: 841; 2: 248
